study system: human adenosine A2A receptor (Homo sapiens (Human), UniProt P29274)
Sequence (P29274 whole entry): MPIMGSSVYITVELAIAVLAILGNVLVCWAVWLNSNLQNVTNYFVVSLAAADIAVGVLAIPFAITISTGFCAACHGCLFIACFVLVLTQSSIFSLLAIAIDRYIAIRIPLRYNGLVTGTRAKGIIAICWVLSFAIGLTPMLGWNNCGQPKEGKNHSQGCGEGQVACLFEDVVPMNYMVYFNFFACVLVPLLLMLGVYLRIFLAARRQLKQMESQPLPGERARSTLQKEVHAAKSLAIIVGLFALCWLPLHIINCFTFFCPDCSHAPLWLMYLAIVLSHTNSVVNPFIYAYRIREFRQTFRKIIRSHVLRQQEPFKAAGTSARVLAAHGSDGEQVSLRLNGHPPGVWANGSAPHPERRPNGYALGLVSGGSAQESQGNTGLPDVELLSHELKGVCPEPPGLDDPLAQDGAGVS
procedure text: Adenosine receptor inhibition binding assay, [3H]ZM241385, HEK293 A2A receptor membranes
stated conditions: 1 nM [3H]ZM241385, HEK293-hA2A membranes, 25° C., 1 h; Ki from IC50 by Cheng-Prusoff
assay metric: A2A pKi

{"compound": "Cc1cc(-c2c(-c3ccccc3)nc(N)n3c(=O)n(C[C@@H]4CCCO4)nc23)cc(C)n1 [Example 2-17]", "assay metric": "A2A pKi", "observed result": 8.6}
{"compound": "Cc1cc(-c2c(-c3ccccc3)nc(N)n3c(=O)n(C[C@@H]4CC(F)(F)CN4)nc23)cc(C)n1 [Example 2-11]", "assay metric": "A2A pKi", "observed result": 8.7}
{"compound": "Cc1cc(-c2c(-c3ccccc3)nc(N)n3c(=O)n(CCc4nnnn4C)nc23)cc(C)n1 [Example 1-5]", "assay metric": "A2A pKi", "observed result": 7.2}
{"compound": "Cc1cc(-c2c(-c3ccc(F)cc3)nc(N)n3c(=O)n(Cc4ncoc4C)nc23)cc(C)n1 [Example 1-31]", "assay metric": "A2A pKi", "observed result": 9.6}
{"compound": "Cc1cc(-c2c(N3CCCCC3)nc(N)n3c(=O)n(Cc4ncoc4C)nc23)cc(C)n1 [Example 4-1]", "assay metric": "A2A pKi", "observed result": 8.9}
{"compound": "Cc1cc(-c2c(-c3ccccc3)nc(N)n3c(=O)n(C[C@H]4C[C@@H](O)CN4)nc23)cc(C)n1 [Example 2-23]", "assay metric": "A2A pKi", "observed result": 8.2}
{"compound": "Cc1cc(-c2c(-c3ccccc3)nc(N)n3c(=O)n(CCc4nnn[nH]4)nc23)cc(C)n1 [Example 1-4]", "assay metric": "A2A pKi", "observed result": 6.4}
{"compound": "Cc1cc(-c2c(-c3ccccc3)nc(N)n3c(=O)n(C4CCN(C)C4)nc23)cc(C)n1 (stereo not drawn) [Example 2-3]", "assay metric": "A2A pKi", "observed result": 7.8}
{"compound": "Cc1cc(-c2c(-c3ccccc3)nc(N)n3c(=O)n(CCc4nccn4C)nc23)cc(C)n1 [Example 1-2]", "assay metric": "A2A pKi", "observed result": 8.2}
{"compound": "Cn1ccnc1Cn1nc2c(-c3cc(Cl)nc(CO)c3)c(-c3ccccc3)nc(N)n2c1=O [Example 1-55]", "assay metric": "A2A pKi", "observed result": 9.4}
{"compound": "Cc1cc(-c2c(-c3ccccc3)nc(N)n3c(=O)n(CCN4CCCC4)nc23)cc(C)n1 [Example 2-26]", "assay metric": "A2A pKi", "observed result": 6.9}
{"compound": "Cc1cc(-c2c(-c3ccccc3)nc(N)n3c(=O)n(Cc4cncn4C)nc23)cc(C)n1 [Example 1-18]", "assay metric": "A2A pKi", "observed result": 8.5}
{"compound": "Cc1cc(-c2c(-c3ccccc3)nc(N)n3c(=O)n(Cc4cnn(C)n4)nc23)cc(C)n1 [Example 1-30]", "assay metric": "A2A pKi", "observed result": 8.9}
{"compound": "Cc1cc(-c2c(-c3ccccc3)nc(N)n3c(=O)n(Cc4cocn4)nc23)cc(CO)n1 [Example 1-42]", "assay metric": "A2A pKi", "observed result": 8.5}
{"compound": "Cc1cc(-c2c(-c3ccccc3)nc(N)n3c(=O)n(CCNC4CCN(C(=O)c5cccnc5)C4)nc23)cc(C)n1 (stereo not drawn) [Example 3-2]", "assay metric": "A2A pKi", "observed result": 6.9}
